Where do these numbers come from? They come from patent US9611256B2.

target: P-gp (Homo sapiens, UniProt P08183); assay: cell-based
Sequence (P08183 whole entry): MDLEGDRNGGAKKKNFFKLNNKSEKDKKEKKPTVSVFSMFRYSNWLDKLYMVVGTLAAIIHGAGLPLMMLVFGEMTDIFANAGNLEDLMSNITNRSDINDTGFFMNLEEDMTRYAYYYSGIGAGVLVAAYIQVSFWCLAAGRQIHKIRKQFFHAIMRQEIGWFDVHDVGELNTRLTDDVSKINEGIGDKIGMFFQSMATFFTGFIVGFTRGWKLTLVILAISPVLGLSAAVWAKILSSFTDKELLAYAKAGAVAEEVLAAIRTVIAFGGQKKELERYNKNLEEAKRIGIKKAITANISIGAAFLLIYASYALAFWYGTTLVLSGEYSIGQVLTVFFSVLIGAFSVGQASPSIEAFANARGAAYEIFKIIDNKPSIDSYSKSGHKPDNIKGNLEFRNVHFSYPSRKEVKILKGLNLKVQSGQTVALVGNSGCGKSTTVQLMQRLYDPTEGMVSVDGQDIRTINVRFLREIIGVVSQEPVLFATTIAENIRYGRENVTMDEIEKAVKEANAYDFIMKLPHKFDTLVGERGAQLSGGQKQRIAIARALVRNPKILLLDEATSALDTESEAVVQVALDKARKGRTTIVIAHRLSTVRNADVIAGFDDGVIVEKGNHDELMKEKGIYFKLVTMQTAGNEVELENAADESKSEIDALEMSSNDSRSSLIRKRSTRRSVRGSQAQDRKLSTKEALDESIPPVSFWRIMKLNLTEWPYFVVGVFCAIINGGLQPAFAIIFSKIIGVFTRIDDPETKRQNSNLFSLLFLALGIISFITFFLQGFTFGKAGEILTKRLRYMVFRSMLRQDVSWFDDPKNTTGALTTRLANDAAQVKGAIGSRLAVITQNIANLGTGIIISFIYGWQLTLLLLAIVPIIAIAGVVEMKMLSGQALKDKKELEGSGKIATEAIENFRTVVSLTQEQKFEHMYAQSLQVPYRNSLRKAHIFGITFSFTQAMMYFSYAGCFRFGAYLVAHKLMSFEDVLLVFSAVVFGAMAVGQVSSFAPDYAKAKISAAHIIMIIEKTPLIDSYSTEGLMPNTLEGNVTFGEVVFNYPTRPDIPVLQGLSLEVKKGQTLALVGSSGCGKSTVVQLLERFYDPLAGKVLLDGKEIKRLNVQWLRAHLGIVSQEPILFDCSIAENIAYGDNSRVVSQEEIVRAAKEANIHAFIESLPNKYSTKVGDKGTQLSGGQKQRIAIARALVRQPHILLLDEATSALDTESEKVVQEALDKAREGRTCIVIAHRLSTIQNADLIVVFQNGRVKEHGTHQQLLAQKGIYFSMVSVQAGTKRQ
Record form. Attribute: pEC50. Fill in for each entry.
Expect pEC50 as a plain number equal to -log10 of the molar concentration.

Q) Which measured pEC50 value corresponds to Cc1ccc2oc(-c3ccc(OCCCCc4cn(CCOCCOc5ccc(-c6cc(=O)c7cc(F)ccc7o6)cc5)nn4)cc3)cc(=O)c2c1 ?
A) 6.80

Q) Which measured pEC50 value corresponds to O=c1cc(-c2ccccc2)oc2cc(OCCOCc3cn(CCOCCOc4ccc(-c5oc6ccccc6c(=O)c5OCc5ccccc5)cc4)nn3)ccc12 ?
A) 6.47

Q) Which measured pEC50 value corresponds to Cc1ccc2oc(-c3ccc(OCCCCc4cn(CCOCCOCCOc5ccc6c(=O)cc(-c7ccccc7)oc6c5)nn4)cc3)cc(=O)c2c1 ?
A) 6.85
